# Lookup of reported pKD keyed by entry
- target-or-test-system: T1, human carbonic anhydrase 4 (CAIV), biotinylated (Sino Biological Cat #10472-H08H) (human, UniProt P22748 19-283, biotinylated (sites not given))
- T1 construct: Bought protein, biotinylated and captured with the Biotin CAPture Kit; also called hCAIV-bio; carbonic anhydrase IV
- T1 sequence (P22748 19-283 limits assumed): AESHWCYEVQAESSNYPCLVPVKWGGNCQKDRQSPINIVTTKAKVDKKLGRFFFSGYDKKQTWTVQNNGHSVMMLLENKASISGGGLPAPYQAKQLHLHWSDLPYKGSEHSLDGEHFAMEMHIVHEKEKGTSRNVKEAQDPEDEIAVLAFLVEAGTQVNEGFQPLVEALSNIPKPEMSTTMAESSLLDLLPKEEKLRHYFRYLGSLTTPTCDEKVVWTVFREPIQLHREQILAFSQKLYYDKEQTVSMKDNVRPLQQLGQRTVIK
- method-summary: SPR (Biacore T200), biotinylated CAIV captured with Biotin CAPture Kit; limit of the category in which no binding is told
Starred links: 1 amine or outer side, 2 acyl side, 3 side chain; linkers in the order of their positions; H or OH if unused. Positions of bridges follow the written chain, without caps; N, C: chain ends. Non-standard residues stand in square brackets, D forms with d. Primed or numbered codes have the meaning given here. *: point of attachment. Aph(SaPr) = 4-amino-L-phenylalanine, ring amine acylated by 3-sulfamoylpropanoic acid, NS(=O)(=O)CCC(=O)Nc1ccc(C[C@H](N[*:1])C(=O)[*:2])cc1; APAc″ = 2-(4-(amino)piperidin-1-yl)acetic acid, NC1CCN(CC(=O)*)CC1; DOTA = O=C(O)CN1CCN(CC(=O)O)CCN(CC(=O)*)CCN(CC(=O)O)CC1; mXylylene = c1cc(C[*:1])cc(C[*:2])c1; Dap = NC[C@H](N)C(=O)O

[in] Return reported pKD; argument: {DOTA-APAc″}-VDCE[dP]DWLTW[Dap]C-NH2 (lactam 2-11; linker 3-12 via mXylylene, Bicyclic peptide with uncomplexed DOTA; also called DPI-4174) [3BP-4174: DOTA-APAc-Val-{Asp-[Cys(3MeBn)-Glu-pro-Asp-Trp-Leu-Thr-Trp-Dap}-Cys]-NH2]
[out] < 6

[in] # input binder: {DOTA}-QCE[dP]D[Aph(SaPr)]LTWSC-NH2 (linker 2-11 via mXylylene; SMILES CC(C)C[C@@H]1NC(=O)[C@H](Cc2ccc(NC(=O)CCS(N)(=O)=O)cc2)NC(=O)[C@H](CC(=O)O)NC(=O)[C@H]2CCCN2C(=O)[C@H](CCC(=O)O)NC(=O)[C@@H](NC(=O)[C@H](CCC(N)=O)NC(=O)CN2CCN(CC(=O)O)CCN(CC(=O)O)CCN(CC(=O)O)CC2)CSCc2cccc(c2)CSC[C@@H](C(N)=O)NC(=O)[C@H](CO)NC(=O)[C@H](Cc2c[nH]c3ccccc23)NC(=O)[C@H]([C@@H](C)O)NC1=O, Cyclic peptide with uncomplexed DOTA; also called DPI-4501) [3BP-4501: DOTA-Gln-[Cys(3MeBn)-Glu-pro-Asp-Aph(SaPr)-Leu-Thr-Trp-Ser-Cys]-NH2] ; wanted: its pKD
[out] < 6

[in] Consider the binder {DOTA-APAc″}-VYCE[dP]DWLTWSC-NH2 (linker 3-12 via mXylylene, Cyclic peptide with uncomplexed DOTA; also called DPI-3583) [3BP-3583: DOTA-APAc-Val-Tyr-[Cys(3MeBn)-Glu-pro-Asp-Trp-Leu-Thr-Trp-Ser-Cys]-NH2] and give its measured pKD.
[out] < 6
